- measurementTarget: HLA-A*02:01 (peptide-receptive MHC class I molecule, heavy chain with beta-2-microglobulin) (human)
- methodDescription: UV-ligand exchange, anti-b2m ELISA; peptide exchange yield grade (>10% = +; >20% = ++; >50 = +++; >75% = ++++)

binder	peptide exchange yield
SVLAGVVGV (synthetic peptide; source gene GUCY1A2) [SVLAGVVGV (SEQ ID NO: 26)]	> 75%
TLLPTLYEI (synthetic peptide; source gene RNF180) [TLLPTLYEI (SEQ ID NO: 35)]	50 to 75%
ALLGFVTDL (synthetic peptide; source gene ATP2B4) [ALLGFVTDL (SEQ ID NO: 20)]	> 75%
SVMELLQGV (synthetic peptide; source gene TRIM5) [SVMELLQGV (SEQ ID NO: 8)]	> 75%
VLLHVSVLL (synthetic peptide; source gene ZDHHC24) [VLLHVSVLL (SEQ ID NO: 45)]	20 to 50%
ILDAQTAFV (synthetic peptide; source gene ABCC1) [ILDAQTAFV (SEQ ID NO: 24)]	50 to 75%
SLFDEVRQI (synthetic peptide; source gene STX18) [SLFDEVRQI (SEQ ID NO: 5)]	> 75%
NMDDVIYYV (synthetic peptide; source gene RNF145) [NMDDVIYYV (SEQ ID NO: 46)]	50 to 75%
